The entries below are paired with their reported pIC50.
# system-tested: SARS-CoV-2 3CLpro (Severe acute respiratory syndrome coronavirus 2)
# assay-protocol: 3CLpro inhibition, IC50 (FRET substrate, 10 min pre-incubation)
# Type: biochemical
# condition-parameters: IC50 for inhibition of 3CLpro, 30 °C, 10 min pre-incubation; 50 mM Tris, 1 mM EDTA, pH 7.5; Abz-[…](Dnp)-NH2; 3CLpro 27 nM
Convention used: pIC50 is expressed as -log10 of the molar concentration.

O=c1sn(-c2ccc(F)cc2)c(=O)n1-c1ccccc1 :: 7.70
O=c1sn(-c2ccccc2)c(=O)n1-c1ccccc1 :: 6.96
COc1ccc(-n2sc(=O)n(Cc3ccccc3)c2=O)cc1 :: 6.92
COc1ccc(-n2sc(=O)n(C3CCCCC3)c2=O)cc1 :: 6.72

// below: pIC50 requested for another compound
In: Consider the compound COc1ccc(-n2sc(=O)n(-c3ccc(Cl)cc3)c2=O)cc1 . State its measured pIC50.
Out: 8.00
